Data credit: paper PMC4081100

# Measured target: GST-VND3 NAC domain (Arabidopsis thaliana, UniProt Q9FH59 12-162)
# Sequence: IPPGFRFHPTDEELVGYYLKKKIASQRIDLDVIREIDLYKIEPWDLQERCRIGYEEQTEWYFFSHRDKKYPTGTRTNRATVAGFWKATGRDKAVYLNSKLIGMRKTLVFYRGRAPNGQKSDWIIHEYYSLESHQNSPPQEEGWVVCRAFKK
# Assay comment: universal protein binding microarray (PBM); high values mean tight binding
# Applied conditions: protein: recombinant; tags: GST; chain copies: 2; dsDNA, one strand shown
Label scheme for binding signal: A (below 0.1 E-score), B (0.1 E-score to below 0.2 E-score), C (0.2 E-score or more)

Bin? GCGTGTTA C

Returns: class label. Input: TGCGTGAA C

Category of ATACGTAT , please. C

====

# Measured target: GST-SND1(1-203) (Arabidopsis thaliana, UniProt Q9LPI7 1-203)
# Sequence: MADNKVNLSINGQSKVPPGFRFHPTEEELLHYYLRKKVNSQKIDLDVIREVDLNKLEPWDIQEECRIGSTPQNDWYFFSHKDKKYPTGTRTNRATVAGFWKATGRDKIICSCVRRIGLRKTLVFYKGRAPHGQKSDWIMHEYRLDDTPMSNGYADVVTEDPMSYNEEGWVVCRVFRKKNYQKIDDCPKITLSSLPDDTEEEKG
# Assay comment: universal protein binding microarray (PBM); high values mean tight binding
# Applied conditions: protein: recombinant; tags: GST; chain copies: 2; dsDNA, one strand shown
Reported endpoint: binding signal (E-score)
The response must be a number in E-score with no trailing unit.

AGACACGC | 0.215
GAAGGGAA | 0.112
ACACGCTA | 0.438
ACGGAACT | 0.178

Recall and state the measured binding signal for GTTCCGTA . 0.377

Please indicate binding signal recorded for CACGCTAC 0.441

Specify reported binding signal for the sequence shown: ACTCAACC 0.381

// fetch binding signal given entry AGGGAAAC 0.0839

Please look at this sequence and report its binding signal: ACACGCGA 0.309

====

# Measured target: GST-ANAC092(1-285) full length (Arabidopsis thaliana, UniProt Q9FKA0 1-285)
# Sequence: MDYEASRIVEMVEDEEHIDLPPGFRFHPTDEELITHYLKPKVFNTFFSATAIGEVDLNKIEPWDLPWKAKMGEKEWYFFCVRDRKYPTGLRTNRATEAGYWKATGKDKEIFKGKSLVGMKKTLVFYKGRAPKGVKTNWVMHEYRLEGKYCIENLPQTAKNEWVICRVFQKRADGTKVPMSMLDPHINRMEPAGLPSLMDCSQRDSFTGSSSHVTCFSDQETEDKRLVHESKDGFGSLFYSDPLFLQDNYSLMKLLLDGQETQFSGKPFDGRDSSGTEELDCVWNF
# Assay comment: universal protein binding microarray (PBM); transcription factors of Arabidopsis thaliana; high values mean tight binding
# Applied conditions: protein: recombinant; tags: GST; chain copies: 2; dsDNA, one strand shown
As shown below, each of these sequences has a reported binding signal value.
# output: bare number, implied unit E-score

CGTTTCCC | 0.274
CTAAGGAA | 0.128

Answer briefly: binding signal recorded on GST-ANAC092(1-285) full length (Arabidopsis thaliana, UniProt Q9FKA0 1-285) for AAGGGTAA 0.134

State recorded binding signal with GST-ANAC092(1-285) full length (Arabidopsis thaliana, UniProt Q9FKA0 1-285), entry GAGGGTAA , no comment. 0.109

State measured binding signal of the sequence CTTTACGC with GST-ANAC092(1-285) full length (Arabidopsis thaliana, UniProt Q9FKA0 1-285). 0.302
